Lab note: AC50 readings collected with UniProt:P37288 for the following compounds.
Sequence (P37288 whole entry): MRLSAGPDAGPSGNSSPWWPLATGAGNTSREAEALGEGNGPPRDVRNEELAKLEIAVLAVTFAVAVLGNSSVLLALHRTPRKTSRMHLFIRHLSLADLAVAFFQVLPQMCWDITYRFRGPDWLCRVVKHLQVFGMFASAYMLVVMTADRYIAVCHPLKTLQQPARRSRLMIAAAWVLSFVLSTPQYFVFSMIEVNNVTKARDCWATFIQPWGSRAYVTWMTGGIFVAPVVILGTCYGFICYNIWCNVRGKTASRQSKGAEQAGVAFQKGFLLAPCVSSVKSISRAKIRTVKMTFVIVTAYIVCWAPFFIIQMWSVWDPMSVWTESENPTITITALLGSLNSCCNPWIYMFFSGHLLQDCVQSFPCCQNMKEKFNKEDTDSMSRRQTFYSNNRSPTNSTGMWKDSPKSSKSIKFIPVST

Recorded results for 2 compounds are shown here.
1. CC[C@@H](CO)NC(=O)[C@@H]1C=C2c3cccc4[nH]cc(c34)C[C@H]2N(C)C1    > 30 µM
2. CC(CCc1ccccc1)NC(C)C(O)c1ccc(O)cc1 (centres undefined)    > 10 µM

Go through the items and report each one's AC50.
1. Cc1cnc(NC(=O)C2=C(O)c3ccccc3S(=O)(=O)N2C)s1
2. CC(=O)OCC[N+](C)(C)C
3. O=C1CN2Cc3c(ccc(Cl)c3Cl)N=C2N1 [ANAGRELIDE]
4. CCOC(=O)Nc1ccc2c(c1)N(C(=O)CCN1CCOCC1)c1ccccc1S2
5. O=C(O)c1ccccc1OP(=O)(O)O
6. CN(c1nccc(=O)[nH]1)C1CCN(c2nc3ccccc3n2Cc2ccc(F)cc2)CC1
7. CCOc1cc(CC(=O)N[C@@H](CC(C)C)c2ccccc2N2CCCCC2)ccc1C(=O)O [REPAGLINIDE]

A:
1. > 10 µM
2. > 30 µM
3. > 30 µM
4. > 30 µM
5. > 30 µM
6. > 30 µM
7. > 30 µM
